- Tested Target: T1, human PD-L1-Fc chimeric protein (human, UniProt Q9NZQ7 19-238)
- T1 construct: extracellular domain; Recombinant protein; also called soluble PD-L1-Fc; not shown: Fc region of human IgG1, fused at the C-terminus
- T1 sequence (Q9NZQ7 19-238, change not shown): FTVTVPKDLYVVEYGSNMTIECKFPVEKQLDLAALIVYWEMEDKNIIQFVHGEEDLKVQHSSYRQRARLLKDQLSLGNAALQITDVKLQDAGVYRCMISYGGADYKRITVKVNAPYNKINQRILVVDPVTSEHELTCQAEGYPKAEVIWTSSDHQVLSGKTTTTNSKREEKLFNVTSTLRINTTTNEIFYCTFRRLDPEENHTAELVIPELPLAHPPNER
- Assay Explanation: yeast display, clone sequenced from the pool after five FACS sorts on PD-L1-Fc; measured as a pool, not singly

Binder | binding result
PD-1 variant polypeptide, clone S5.1g (receptor) NPPTFSPALLVVTEGDNATFTCSFSNASESFVLNWYRMSPSDQTDKLAAFPEDRGQLGQDSRFRVTQLPNGRDFHMSVVRARRNDSGTYLCGAISLAPKIQIKESLRAELRVTERRAE | binds
PD-1 variant polypeptide, clone S5.1c (receptor) NPPTFSPALLVVTEGDNATFTCSFSNTSESFVLNWYRMSPSNQTDKLAAFPEDRGQPGQDSRFRVIQLPNGRDFHMSVVRARRNDSGTYLCGAISLAPKVQIKESLRAELRVTERRAE | binds

Reference source: patent US20180125934A1
